ASSAY SUMMARY: self-splicing fitness, log relative to wild type (ln ratio); higher = more splicing; Tetrahymena group I intron in knt gene, E. coli kanamycin selection, DiMSum; sequences stand for … in CUCUCU…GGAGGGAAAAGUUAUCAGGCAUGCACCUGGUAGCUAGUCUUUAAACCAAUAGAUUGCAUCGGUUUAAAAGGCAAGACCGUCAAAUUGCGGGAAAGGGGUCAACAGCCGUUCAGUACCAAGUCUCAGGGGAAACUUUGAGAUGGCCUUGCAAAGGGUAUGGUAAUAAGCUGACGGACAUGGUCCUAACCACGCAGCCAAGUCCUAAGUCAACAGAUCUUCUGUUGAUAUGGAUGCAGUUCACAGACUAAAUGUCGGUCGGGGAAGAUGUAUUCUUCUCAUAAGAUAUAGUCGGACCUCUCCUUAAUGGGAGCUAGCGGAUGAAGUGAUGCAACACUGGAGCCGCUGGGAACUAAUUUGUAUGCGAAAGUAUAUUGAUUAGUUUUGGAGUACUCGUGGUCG;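 note: selection with 25 µg/mL kanamycin versus none on LB agar overnight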
EXPERIMENTAL CONTEXT: 37 °C
Where self-splicing fitness (ln) equals or exceeds -0.9, the correct label is Satisfied; where it does not, the label is Not satisfied.

           item_sequence            cat
 0  CAGUAGCAAUAUUACGGGGU  Not satisfied
 1  UCCUAGCAAUAUUACGGGCU  Not satisfied
 2  CUAAAGCAAUAUUACGAUCU  Not satisfied
 3  GUCCAGCAAUAUUACGACCU  Not satisfied
 4  AUAAAGCAAUAUUACGGUUC      Satisfied
 5  CGCUAGCAAUAUUACGCACC  Not satisfied
 6  UCUAAGCAAUAUUACGAAGG  Not satisfied
 7  AAGAAGCAAUAUUACGGAUA  Not satisfied
 8  CAACAGCAAUAUUACGUGAC  Not satisfied
 9  UCACAGCAAUAUUACGGUCA      Satisfied
10  CGGUAGCAAUAUUACGUUCU      Satisfied
11  UAAAAGCAAUAUUACGUGCU  Not satisfied
12  GGGCAGCAAUAUUACGUUGG  Not satisfied
13  GACUAGCAAUAUUACGAAGC  Not satisfied
14  AUCUAGCAAUAUUACGACCU      Satisfied
15  GCGCAGCAAUAUUACGUUAA      Satisfied
16  AUUGAGCAAUAUUACGGAGU  Not satisfied
17  ACGAAGCAAUAUUACGUCGC  Not satisfied
18  CCACAGCAAUAUUACGAAAG      Satisfied
19  CACGAGCAAUAUUACGAUCU  Not satisfied
20  GUCUAGCAAUAUUACGACCG  Not satisfied
21  CUGAAGCAAUAUUACGCGUC  Not satisfied
22  UAGAAGCAAUAUUACGGUUC  Not satisfied
23  GCCCAGCAAUAUUACGUUGC      Satisfied
24  AGCAAGCAAUAUUACGGCCC      Satisfied
25  CAACAGCAAUAUUACGGCAG      Satisfied
26  UGCUAGCAAUAUUACGGCAU  Not satisfied
27  UGUCAGCAAUAUUACGUUUC  Not satisfied
28  AAUGAGCAAUAUUACGUUAA  Not satisfied
29  UUGCAGCAAUAUUACGGAGA  Not satisfied
30  UACAAGCAAUAUUACGGCAG      Satisfied
31  GAGUAGCAAUAUUACGCAGU  Not satisfied
32  ACGAAGCAAUAUUACGGCUA      Satisfied
33  GGCGAGCAAUAUUACGAUGA  Not satisfied
34  GCAAAGCAAUAUUACGACGC  Not satisfied
35  AAUCAGCAAUAUUACGGUAC      Satisfied
36  UAAUAGCAAUAUUACGAUAG  Not satisfied
37  AGAUAGCAAUAUUACGCAGC  Not satisfied
38  CUACAGCAAUAUUACGCGUG  Not satisfied
39  UCACAGCAAUAUUACGAGUA  Not satisfied
40  AGCCAGCAAUAUUACGGACC      Satisfied
41  UUGGAGCAAUAUUACGUAGG  Not satisfied
42  GAGCAGCAAUAUUACGCUCC      Satisfied
43  UUAGAGCAAUAUUACGUGAA      Satisfied
44  GUUCAGCAAUAUUACGGUCG      Satisfied
45  AGACAGCAAUAUUACGAGAU  Not satisfied
46  GGCAAGCAAUAUUACGAUGG  Not satisfied
47  GUCUAGCAAUAUUACGCAGA  Not satisfied
48  AGCAAGCAAUAUUACGUGGG  Not satisfied
49  GAUCAGCAAUAUUACGCUGG  Not satisfied
50  AUCCAGCAAUAUUACGCGAA      Satisfied
51  GGGGAGCAAUAUUACGCAUU  Not satisfied
52  GGUAAGCAAUAUUACGUCGC      Satisfied
53  AGACAGCAAUAUUACGUCUA      Satisfied
54  CACAAGCAAUAUUACGGACA  Not satisfied
55  UAGGAGCAAUAUUACGCUCA  Not satisfied
56  GCCGAGCAAUAUUACGUAUU  Not satisfied
57  UAACAGCAAUAUUACGGUCG      Satisfied
58  UUUUAGCAAUAUUACGUGGU  Not satisfied
59  UUACAGCAAUAUUACGACAA      Satisfied
60  UUCUAGCAAUAUUACGGGUU  Not satisfied
61  GUCCAGCAAUAUUACGGAAU      Satisfied
62  GGGAAGCAAUAUUACGAUAU      Satisfied
63  UGUUAGCAAUAUUACGAGGG  Not satisfied
64  CUCAAGCAAUAUUACGCUUU  Not satisfied
65  ACGCAGCAAUAUUACGUUCC  Not satisfied
